Give inhibition at 1 µM for every item shown.
ASSAYED SYSTEM: PI3K-β (Homo sapiens)
Sequence (P42338 whole entry, looked up): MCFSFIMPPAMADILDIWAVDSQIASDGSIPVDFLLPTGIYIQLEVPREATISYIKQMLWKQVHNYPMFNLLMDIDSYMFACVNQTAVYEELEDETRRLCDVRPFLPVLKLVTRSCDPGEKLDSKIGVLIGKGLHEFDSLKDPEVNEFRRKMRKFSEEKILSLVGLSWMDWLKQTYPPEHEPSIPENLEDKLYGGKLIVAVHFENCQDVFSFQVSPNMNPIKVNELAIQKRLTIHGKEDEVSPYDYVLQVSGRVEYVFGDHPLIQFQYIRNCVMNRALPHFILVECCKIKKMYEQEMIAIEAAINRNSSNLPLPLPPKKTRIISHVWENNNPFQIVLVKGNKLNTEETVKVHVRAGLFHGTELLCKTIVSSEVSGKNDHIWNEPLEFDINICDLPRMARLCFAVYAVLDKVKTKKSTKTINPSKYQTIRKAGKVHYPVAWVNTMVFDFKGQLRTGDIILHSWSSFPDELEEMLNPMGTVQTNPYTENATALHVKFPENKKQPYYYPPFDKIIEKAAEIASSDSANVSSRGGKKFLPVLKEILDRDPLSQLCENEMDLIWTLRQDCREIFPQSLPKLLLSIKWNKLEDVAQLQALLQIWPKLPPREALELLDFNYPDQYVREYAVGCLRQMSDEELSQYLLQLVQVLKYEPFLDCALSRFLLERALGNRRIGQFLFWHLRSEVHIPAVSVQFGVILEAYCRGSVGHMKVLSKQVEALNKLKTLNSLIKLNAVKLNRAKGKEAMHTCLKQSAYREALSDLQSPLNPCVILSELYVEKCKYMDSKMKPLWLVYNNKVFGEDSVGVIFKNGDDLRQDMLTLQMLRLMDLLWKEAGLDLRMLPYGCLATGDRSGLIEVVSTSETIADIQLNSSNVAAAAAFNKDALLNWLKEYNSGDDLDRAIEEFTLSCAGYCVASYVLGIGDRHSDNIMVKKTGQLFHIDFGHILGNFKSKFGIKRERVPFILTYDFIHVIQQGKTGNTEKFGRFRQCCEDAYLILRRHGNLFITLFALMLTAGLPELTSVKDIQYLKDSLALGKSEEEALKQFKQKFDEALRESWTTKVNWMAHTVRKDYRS
ASSAY DETAILS: Transcreener KINASE Assay, fluorescent determination of PI3K enzyme activity;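 note: recombinant PI3K enzyme reaction, 80 min at room temperature, ADP formed detected by far-red competitive fluorescence polarization immunoassay, inhibition relative to ADP in 2% DMSO control wells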
Type: biochemical
APPLIED CONDITIONS: at 1 μM; read-out: PI3K-β IH % (inhibition rate)
One number for each entry, in %.

C[C@H](Nc1ncnc(N)c1C#N)c1cc2ncc(Cl)n2nc1-c1ccc2ccn(C)c2c1: 54.9
Cc1noc(-c2c(N)ncnc2N[C@@H](C)c2cc3ncc(Cl)n3nc2-c2ccccc2)n1: 55.2
C[C@H](Nc1nc(O)nc(N)c1C#N)c1cc2ncc(Cl)n2nc1-c1ccccc1: 8.5
C[C@H](Nc1ncnc(N)c1C(=O)N(C)C)c1cc2ncc(Cl)n2nc1-c1ccccc1: 9
C[C@H](Nc1ncnc(N)c1C#N)c1cc2ncc(Cl)n2nc1-c1cc(F)ccc1F: 67.6
C[C@H](Nc1nc(N)ncc1C#N)c1cc2ncc(Cl)n2nc1-c1ccccc1: 3.7

Each molecule below has a recorded value; state its inhibition at 1 µM.
1. C[C@H](Nc1ncnc(N)c1C#N)c1cc2ncc(Cl)n2nc1-c1ccc2ccccc2c1
2. C[C@H](Nc1ncnc(N)c1C#N)c1cc2ncc(Cl)n2nc1-c1cccc(F)c1
3. CC(Nc1ncnc(N)c1C#N)c1cc2nccn2nc1-c1ccccc1 (stereo not shown)
4. C[C@H](Nc1ncnc(N)c1C#N)c1cc2ncc(Cl)n2nc1-c1ccccn1
5. Cc1cnc2cc([C@H](C)Nc3ncnc(N)c3C#N)c(-c3ccccc3)nn12
6. COc1ccc(-c2c(N)ncnc2N[C@@H](C)c2cc3ncc(Cl)n3nc2-c2ccccc2)cn1

Result:
[35.2, 59, 28.1, 37.7, 76.7, -4.4]
